- system.tested: LILRA1 (human (not printed on the sheet), UniProt O75019)
- Sequence (O75019 17-461 limits assumed): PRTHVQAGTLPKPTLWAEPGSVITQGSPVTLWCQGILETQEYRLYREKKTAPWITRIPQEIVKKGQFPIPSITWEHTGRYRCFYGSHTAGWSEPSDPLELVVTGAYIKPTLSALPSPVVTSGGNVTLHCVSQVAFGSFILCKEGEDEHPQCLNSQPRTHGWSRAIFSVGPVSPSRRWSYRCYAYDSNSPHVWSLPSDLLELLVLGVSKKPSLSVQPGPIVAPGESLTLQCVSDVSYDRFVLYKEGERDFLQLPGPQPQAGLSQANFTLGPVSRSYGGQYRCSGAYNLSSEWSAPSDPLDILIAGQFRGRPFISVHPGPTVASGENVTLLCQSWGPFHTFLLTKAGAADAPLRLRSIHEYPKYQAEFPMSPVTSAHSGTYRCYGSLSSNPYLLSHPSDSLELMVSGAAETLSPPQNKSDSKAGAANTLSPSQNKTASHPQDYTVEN
- measurement.description: LILR reporter cells on coated antibody, GFP positive (%)

binder	binding result
h193 antibody No. 24 (h193-H4 / h193-K2) (antibody, V domains shown) VH: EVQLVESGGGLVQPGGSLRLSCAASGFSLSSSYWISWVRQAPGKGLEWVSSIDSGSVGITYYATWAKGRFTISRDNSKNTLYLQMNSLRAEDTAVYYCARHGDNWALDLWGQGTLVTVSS VL: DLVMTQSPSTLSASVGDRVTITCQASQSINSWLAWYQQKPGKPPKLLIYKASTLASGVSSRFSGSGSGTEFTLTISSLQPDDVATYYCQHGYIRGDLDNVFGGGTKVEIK	no binding
h193 antibody No. 35 (h193-H7 / h193-K1) (antibody, V domains shown) VH: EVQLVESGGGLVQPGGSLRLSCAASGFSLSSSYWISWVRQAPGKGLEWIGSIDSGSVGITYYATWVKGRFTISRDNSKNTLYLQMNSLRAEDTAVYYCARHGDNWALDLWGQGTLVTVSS VL: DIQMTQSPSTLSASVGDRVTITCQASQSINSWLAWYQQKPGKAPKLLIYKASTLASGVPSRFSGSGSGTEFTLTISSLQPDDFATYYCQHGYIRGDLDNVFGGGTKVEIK	no binding
h193 antibody No. 32 (h193-H6 / h193-K2) (antibody, V domains shown) VH: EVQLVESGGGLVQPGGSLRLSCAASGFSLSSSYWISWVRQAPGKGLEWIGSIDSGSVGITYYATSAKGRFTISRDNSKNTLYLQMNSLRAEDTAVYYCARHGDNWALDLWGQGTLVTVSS VL: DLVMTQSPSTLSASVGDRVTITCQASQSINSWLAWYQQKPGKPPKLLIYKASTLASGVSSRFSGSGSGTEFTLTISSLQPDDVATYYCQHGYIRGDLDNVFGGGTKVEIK	no binding

The reported numbers originate from patent US20210371518A1.
